test system: B16F10.9 cells (MSR1 negative); assay: Flow cytometry binding, MSR1 negative cells; type: cell-based, mouse; details: 10 μg/mL antibody
Measured B16F10.9 MFI values are reported for all entries that follow.
Respond using a number only.

Worked set:
| molecule | reportedMeasurement |
| --- | --- |
| H1H27729P-N297Q: anti-MSR1 antibody "made with an N297Q single point mutation in human Fcγ portion" (antibody, V domains shown) VH: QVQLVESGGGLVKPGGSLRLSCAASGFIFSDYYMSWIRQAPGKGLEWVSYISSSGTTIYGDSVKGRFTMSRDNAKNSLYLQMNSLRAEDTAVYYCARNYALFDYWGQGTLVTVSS VL: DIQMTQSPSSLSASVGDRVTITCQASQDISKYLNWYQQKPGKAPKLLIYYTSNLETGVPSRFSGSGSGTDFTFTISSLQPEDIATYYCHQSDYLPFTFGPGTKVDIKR | 3459 |
| H1H21227N-N297Q: "modified versions of 21227N (H1H21227N-N297Q and H1H21227N-N297D)"; anti-MSR1 antibody "with a N297Q single point mutation" (antibody, V domains shown) VH: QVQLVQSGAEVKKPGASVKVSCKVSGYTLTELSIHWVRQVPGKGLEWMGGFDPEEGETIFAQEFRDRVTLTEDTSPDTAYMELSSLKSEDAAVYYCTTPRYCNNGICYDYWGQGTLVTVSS VL: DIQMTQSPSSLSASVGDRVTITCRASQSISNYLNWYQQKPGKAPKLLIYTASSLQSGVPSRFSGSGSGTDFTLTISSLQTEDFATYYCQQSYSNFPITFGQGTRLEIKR | 3287 |

B16F10.9 MFI measured on H1H27754P-N297Q: one of "Twelve anti-MSR1 antibodies"; "made with an N297Q single point mutation in human Fcγ portion" (antibody, V domains shown) VH: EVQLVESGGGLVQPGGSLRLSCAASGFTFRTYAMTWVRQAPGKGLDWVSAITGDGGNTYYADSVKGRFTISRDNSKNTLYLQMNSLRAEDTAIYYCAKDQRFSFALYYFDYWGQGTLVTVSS VL: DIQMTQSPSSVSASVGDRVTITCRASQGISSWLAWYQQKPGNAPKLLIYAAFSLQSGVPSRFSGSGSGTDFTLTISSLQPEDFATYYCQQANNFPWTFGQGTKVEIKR = 4091
